Target: NS3 (Hepatitis C virus)
Numbered stars: 1 amine (or outer) side, 2 acyl side, 3 side chain; on linkers, the order of the positions; unused ones are H or OH. Square brackets hold non-standard residues; d marks the D form. Peptide text beside a SMILES is read from it. * marks the point of attachment. Isobutyloxycarbonyl = CC(C)COC(=O)*; Gly(cPent) = N[C@H](C(=O)O)C1CCCC1; X1 = CCCC(N[*:1])C(=O)C(=O)[*:2]; Chg = N[C@H](C(=O)O)C1CCCCC1; Phg = N[C@H](C(=O)O)c1ccccc1; Boc = CC(C)(C)OC(=O)*; Bn = c1ccc(C*)cc1
// assign 1 if Ki falls strictly below 3 µM, else 0 (ties count as 0)

Example results:
compound	class_label
CCCC(NC(=O)[C@H](CC(C)C)NC(=O)[C@@H](NC(=O)OCC(C)C)C1CCCCC1)C(=O)C(=O)NCC(=O)N[C@H](C(=O)O)C1CCCC1 (stereo not given in full) (Isobutyloxycarbonyl-[Chg]L[X1]G[Gly(cPent)]-OH)	1
CCCC(NC(=O)[C@@H]1CCCN1C(=O)[C@@H](NC(=O)OCC(C)C)C(C)C)C(=O)C(=O)NCC(=O)N[C@H](C(=O)O)[C@@H](C)CC (stereo not given in full) (Isobutyloxycarbonyl-VP[X1]GI-OH)	0
CCCC(NC(=O)[C@H](CC(C)C)NC(=O)[C@@H](NC(=O)OC(C)(C)C)C1CCCCC1)C(=O)C(=O)NCC(=O)N[C@H](C(=O)O)c1ccccc1 (stereo not given in full) (Boc-[Chg]L[X1]G[Phg]-OH)	1
CCCC(NC(=O)[C@H](CC(C)C)NC(=O)[C@@H](NC(=O)OCC(C)C)C1CCCCC1)C(=O)C(=O)NCC(=O)N[C@H](C(N)=O)C(C)C (stereo not given in full) (Isobutyloxycarbonyl-[Chg]L[X1]GV-NH2)	1

Okay, next one:
Is Ki strictly under 3 µM for the entry CCCC(NC(=O)[C@@H]1CCCN1C(=O)[C@@H](NC(=O)OCC(C)C)C(C)C)C(=O)C(=O)NCC(=O)N[C@@H](COCc1ccccc1)C(N)=O (stereo not given in full) (Isobutyloxycarbonyl-VP[X1]GS(Bn)-NH2) ?
0

----------
Numbered stars: 1 amine (or outer) side, 2 acyl side, 3 side chain; on linkers, the order of the positions; unused ones are H or OH. Square brackets hold non-standard residues; d marks the D form. Peptide text beside a SMILES is read from it. * marks the point of attachment. Isobutyloxycarbonyl = CC(C)COC(=O)*; X1 = CCCC(N[*:1])C(=O)C(=O)[*:2]; Tle = CC(C)(C)[C@H](N)C(=O)O; hSer = N[C@@H](CCO)C(=O)O
Reported Ki, NS3 (Hepatitis C virus).

molecule	Ki
CCCC(NC(=O)[C@@H]1CCCN1C(=O)[C@@H](NC(=O)OCC(C)C)C(C)C)C(=O)C(=O)NCC(=O)N[C@@H](CCC(=O)OCC)C(=O)OC (stereo not given in full) (Isobutyloxycarbonyl-VP[X1]GE(OEt)-OMe)	20 µM
CCCC(NC(=O)[C@@H]1CCCN1C(=O)[C@@H](NC(=O)OCC(C)C)C(C)C)C(=O)C(=O)NCC(=O)N[C@H](C(N)=O)C(C)(C)C (stereo not given in full) (Isobutyloxycarbonyl-VP[X1]G[Tle]-NH2)	53 µM

Report value only: Ki, NS3 (Hepatitis C virus), CCCC(NC(=O)[C@@H]1CCCN1C(=O)[C@@H](NC(=O)OCC(C)C)C(C)C)C(=O)C(=O)NCC(=O)N[C@@H](CCC(=O)O)C(=O)O (stereo not given in full) (Isobutyloxycarbonyl-VP[X1]GE-OH)
> 100 µM

Report value only: Ki, NS3 (Hepatitis C virus), CCCC(NC(=O)[C@@H]1CCCN1C(=O)[C@@H](NC(=O)OCC(C)C)C(C)C)C(=O)C(=O)NCC(=O)N[C@@H](CCO)C(N)=O (stereo not given in full) (Isobutyloxycarbonyl-VP[X1]G[hSer]-NH2)
111 µM

----------
Reported Ki, NS3 (Hepatitis C virus, UniProt A3EZJ3).
Numbered stars: 1 amine (or outer) side, 2 acyl side, 3 side chain; on linkers, the order of the positions; unused ones are H or OH. Square brackets hold non-standard residues; d marks the D form. Peptide text beside a SMILES is read from it. * marks the point of attachment. Isobutyloxycarbonyl = CC(C)COC(=O)*; X1 = CCCC(N[*:1])C(=O)C(=O)[*:2]; Chg = N[C@H](C(=O)O)C1CCCCC1; Nle = CCCC[C@H](N)C(=O)O; tBu = CC(C)(C)*
Please state the figure in µM; there is no need to write the unit.

The cases that follow already have their Ki on record.
compound	unit	Ki
CCCC(NC(=O)[C@H](CC(C)C)NC(=O)[C@@H](NC(=O)OCC(C)C)C1CCCCC1)C(=O)C(=O)NCC(=O)N[C@@H](COC(C)(C)C)C(N)=O (stereo not given in full) (Isobutyloxycarbonyl-[Chg]L[X1]GS(tBu)-NH2)	µM	0.46
CCCC(NC(=O)[C@@H]1CCCN1C(=O)[C@@H](NC(=O)OCC(C)C)C(C)C)C(=O)C(=O)NCC(=O)N[C@H](C(N)=O)C1CCCCC1 (stereo not given in full) (Isobutyloxycarbonyl-VP[X1]G[Chg]-NH2)	µM	2.6
CCCC(NC(=O)[C@@H]1CCCN1C(=O)[C@@H](NC(=O)OCC(C)C)C(C)C)C(=O)C(=O)NCC(=O)N[C@@H](Cc1ccccc1)C(N)=O (stereo not given in full) (Isobutyloxycarbonyl-VP[X1]GF-NH2)	µM	15
CCCC(NC(=O)[C@@H]1CCCN1C(=O)[C@@H](NC(=O)OCC(C)C)C(C)C)C(=O)C(=O)NCC(=O)N[C@@H](CCCCN)C(N)=O (stereo not given in full) (Isobutyloxycarbonyl-VP[X1]GK-NH2)	µM	82

Answer with the recorded Ki for the compound listed here: CCCC[C@H](NC(=O)CNC(=O)C(=O)C(CCC)NC(=O)[C@H](CC(C)C)NC(=O)[C@@H](NC(=O)OCC(C)C)C1CCCCC1)C(N)=O (stereo not given in full) (Isobutyloxycarbonyl-[Chg]L[X1]G[Nle]-NH2)
0.28

----------
Each record here notes measured log10(Ki).
Target: NS3 (Hepatitis C virus, UniProt A3EZJ3)
Sequence (A3EZJ3 whole entry): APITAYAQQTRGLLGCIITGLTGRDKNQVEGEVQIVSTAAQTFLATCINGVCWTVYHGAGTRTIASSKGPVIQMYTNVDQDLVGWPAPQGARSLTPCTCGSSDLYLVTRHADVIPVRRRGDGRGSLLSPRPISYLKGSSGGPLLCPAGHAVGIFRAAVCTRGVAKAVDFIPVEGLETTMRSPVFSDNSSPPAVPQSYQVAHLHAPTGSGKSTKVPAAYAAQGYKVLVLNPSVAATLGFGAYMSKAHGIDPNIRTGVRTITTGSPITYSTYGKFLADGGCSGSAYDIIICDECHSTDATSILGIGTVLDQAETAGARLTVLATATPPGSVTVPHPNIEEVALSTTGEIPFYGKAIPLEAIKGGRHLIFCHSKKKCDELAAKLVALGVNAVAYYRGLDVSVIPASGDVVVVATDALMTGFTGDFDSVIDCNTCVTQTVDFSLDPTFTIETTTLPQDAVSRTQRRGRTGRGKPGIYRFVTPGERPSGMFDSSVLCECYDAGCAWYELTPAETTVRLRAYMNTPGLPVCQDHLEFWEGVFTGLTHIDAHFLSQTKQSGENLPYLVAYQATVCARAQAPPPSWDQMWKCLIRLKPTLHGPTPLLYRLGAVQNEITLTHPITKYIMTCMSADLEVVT
Numbered stars: 1 amine (or outer) side, 2 acyl side, 3 side chain; on linkers, the order of the positions; unused ones are H or OH. Square brackets hold non-standard residues; d marks the D form. Peptide text beside a SMILES is read from it. * marks the point of attachment. Gly(piperidin-4-yl) = N[C@H](C(=O)O)C1CCNCC1; Isobutyloxycarbonyl = CC(C)COC(=O)*; X1 = CCCC(N[*:1])C(=O)C(=O)[*:2]; hPhe = N[C@@H](CCc1ccccc1)C(=O)O; Aad = N[C@@H](CCCC(=O)O)C(=O)O; Cha = N[C@@H](CC1CCCCC1)C(=O)O; Chg = N[C@H](C(=O)O)C1CCCCC1; Phg = N[C@H](C(=O)O)c1ccccc1
Please interpret these as log10 of Ki where Ki is in µM.

The cases that follow already have their log10(Ki) on record.
compound	log10(Ki)
CCCC(NC(=O)[C@@H]1CCCN1C(=O)[C@@H](NC(=O)OCC(C)C)C(C)C)C(=O)C(=O)NCC(=O)N[C@@H](CC(=O)OC)C(=O)OC (stereo not given in full) (Isobutyloxycarbonyl-VP[X1]GD(OMe)-OMe)	1.74
CCCC(NC(=O)[C@H](CC(C)C)NC(=O)[C@@H](NC(=O)OCC(C)C)C1CCCCC1)C(=O)C(=O)NCC(=O)N[C@H](C(=O)O)C1CCNCC1 (stereo not given in full) (Isobutyloxycarbonyl-[Chg]L[X1]G[Gly(piperidin-4-yl)]-OH)	0.81
CCCC(NC(=O)[C@@H]1CCCN1C(=O)[C@@H](NC(=O)OCC(C)C)C(C)C)C(=O)C(=O)NCC(=O)N[C@@H](CCCC(=O)O)C(N)=O (stereo not given in full) (Isobutyloxycarbonyl-VP[X1]G[Aad]-NH2)	1.26

Answer with the recorded log10(Ki) for the compound listed here: CCCC(NC(=O)[C@H](CC(C)C)NC(=O)[C@@H](NC(=O)OCC(C)C)C1CCCCC1)C(=O)C(=O)NCC(=O)N[C@H](C(=O)O)c1ccccc1 (stereo not given in full) (Isobutyloxycarbonyl-[Chg]L[X1]G[Phg]-OH)
-0.92

Answer with the recorded log10(Ki) for the compound listed here: CCCC(NC(=O)[C@@H]1CCCN1C(=O)[C@@H](NC(=O)OCC(C)C)C(C)C)C(=O)C(=O)NCC(=O)N[C@@H](CC1CCCCC1)C(N)=O (stereo not given in full) (Isobutyloxycarbonyl-VP[X1]G[Cha]-NH2)
0.90

Answer with the recorded log10(Ki) for the compound listed here: CCCC(NC(=O)[C@@H]1CCCN1C(=O)[C@@H](NC(=O)OCC(C)C)C(C)C)C(=O)C(=O)NCC(=O)N[C@@H](CCc1ccccc1)C(N)=O (stereo not given in full) (Isobutyloxycarbonyl-VP[X1]G[hPhe]-NH2)
0.83

Taken from ChEMBL document CHEMBL1141039.
